Recorded glass transition temperature determines the label; the label ranges are class 0 (below 70 °C), class 1 (70 °C to below 200 °C), class 2 (200 °C or more)

- compound: "*c1ccc2c(c1)C(=O)N(c1cc(C(=O)Nc3ccc(C(c4ccc(NC(=O)c5ccc(C)c(N6C(=O)c7ccc(C(*)(C(F)(F)F)C(F)(F)F)cc7C6=O)c5)cc4)(C(F)(F)F)C(F)(F)F)cc3)ccc1C)C2=O (repeat unit)"
  label_value: "class 2"
- compound: "*Oc1ccc(Oc2ccc(Oc3ccc(NC(=O)c4cc(C(=O)Nc5ccc(*)cc5)cc(C(C)(C)C)c4)cc3)cc2)cc1 (repeat unit)"
  label_value: "class 2"
- compound: "*CN1C(=O)c2ccc(C(c3ccc4c(c3)C(=O)N(Cc3nc5ccc(Cc6ccc7nc(*)oc(=O)c7c6)cc5c(=O)o3)C4=O)(C(F)(F)F)C(F)(F)F)cc2C1=O (repeat unit)"
  label_value: "class 2"
- compound: "*CC(*)c1ccc(C(=O)OC(C)C)cc1 (repeat unit)"
  label_value: "class 1"
- compound: "*C(=O)c1cccc(C(=O)c2ccc3c(c2)C(=O)N(c2ccc(Oc4ccc(N5C(=O)c6ccc(*)cc6C5=O)cc4)cc2)C3=O)c1 (repeat unit)"
  label_value: "class 2"

API: the following record is the query input.
Exam item: assign */C=C/C(COCc1ccccc1)C(*)COCc1ccccc1 (repeat unit) to the correct category. class 0

* * *

Label satisfied when glass transition temperature < 100 °C; otherwise not satisfied.

Please review the entries below; each comes with its answer.
- compound: "*OC(=O)OC1COC2C(*)COC12 (repeat unit)"
  label_value: "not satisfied"
- compound: "*C(=O)Nc1ccc(Oc2ccccc2-c2ccccc2Oc2ccc(NC(=O)c3ccc4c(c3)C(=O)N(c3ccc(Oc5ccccc5-c5ccccc5Oc5ccc(N6C(=O)c7ccc(*)cc7C6=O)cc5)cc3)C4=O)cc2)cc1 (repeat unit)"
  label_value: "not satisfied"
- compound: "*c1ccc(NC(=O)c2cccc(C(=O)Nc3ccc(-n4c(=O)c5cc6c(=O)n(*)c(=O)c6cc5c4=O)cc3)c2)cc1 (repeat unit)"
  label_value: "not satisfied"
- compound: "*c1ccc(-c2nc3ccc(Oc4ccc5nc(*)c(-c6ccccc6)c(-c6ccccc6)c5c4)cc3c(-c3ccccc3)c2-c2ccccc2)cc1 (repeat unit)"
  label_value: "not satisfied"
- compound: "*CC(*)C(C)C (repeat unit)"
  label_value: "satisfied"

Lab log: compare recorded glass transition temperature with 100 °C; is it strictly lower for *OP(=O)(Oc1ccc([N+](=O)[O-])cc1)Oc1c(Br)cc(C(c2cc(Br)c(*)c(Br)c2)(C(F)(F)F)C(F)(F)F)cc1Br (repeat unit) ? not satisfied

Lab log: compare recorded glass transition temperature with 100 °C; is it strictly lower for *CC(C)(C)C1C(=O)OC(=O)C1* (repeat unit) ? not satisfied

Lab log: compare recorded glass transition temperature with 100 °C; is it strictly lower for *c1ccc(Oc2ccc(S(=O)(=O)c3ccc(Oc4ccc(-c5c6c(c(*)c7ccccc57)C(=O)N(c5ccc(F)cc5)C6=O)cc4)cc3)cc2)cc1 (repeat unit) ? not satisfied

Lab log: compare recorded glass transition temperature with 100 °C; is it strictly lower for *C[Si](*)(CCCCC)CCCCC (repeat unit) ? satisfied

* * *

Each item that follows carries a reported glass transition temperature.
Give your result in °C as a bare value.

Some solved entries appear below for comparison.
- compound: "*CCC(Cl)C(*)Cl (repeat unit)"
  numeric_value: 70.00
- compound: "*C(=O)Nc1ccc(Oc2ccccc2-c2ccccc2Oc2ccc(NC(=O)c3ccc4c(c3)C(=O)N(c3ccc(Oc5ccc(C(C)(C)c6ccc(Oc7ccc(N8C(=O)c9ccc(*)cc9C8=O)cc7)cc6)cc5)cc3)C4=O)cc2)cc1 (repeat unit)"
  numeric_value: 229.00
- compound: "*CCCN1C(=O)C2C3C=CC(C4C(=O)N(*)C(=O)C34)C2C1=O (repeat unit)"
  numeric_value: 210.00
- compound: "*Oc1ccc(C2(c3ccc(Oc4ccc(C(=O)c5ccc(*)cc5)cc4)cc3)c3ccccc3-c3ccccc32)cc1 (repeat unit)"
  numeric_value: 252.00

get_value(item= *C(=O)OCCN(CCOC(=O)c1ccc2c(c1)C(=O)N(c1c(C)cc(Cc3cc(C)c(N4C(=O)c5ccc(*)cc5C4=O)c(C)c3)cc1C)C2=O)c1ccc(/N=N/c2ccc([N+](=O)[O-])cc2C#N)cc1 (repeat unit) , readout=glass transition temperature) returns 216.00

* * *

Label Fulfilled when glass transition temperature < 300 °C; otherwise Not fulfilled.

- compound: "*Nc1ccc(Cc2ccc(NC(=O)c3cc(C(*)=O)cc(N4C(=O)C5CC=CCC5C4=O)c3)cc2)cc1 (repeat unit)"
  label_value: "Fulfilled"
- compound: "*c1ccc(C(c2ccc(N3C(=O)c4ccc(Oc5ccc6ccc(Oc7ccc8c(c7)C(=O)N(*)C8=O)cc6c5)cc4C3=O)cc2)(C(F)(F)F)C(F)(F)F)cc1 (repeat unit)"
  label_value: "Fulfilled"
- compound: "*c1ccc2c(c1)C(=O)N(c1ccc(-c3ccc(N4C(=O)c5ccc(C(*)(C(F)(F)F)C(F)(F)F)cc5C4=O)c(O)c3)cc1O)C2=O (repeat unit)"
  label_value: "Not fulfilled"

Lab log: compare recorded glass transition temperature with 300 °C; is it strictly lower for *OC(COC(=O)C1=C(C(=O)OCC(COC(=O)C2=C(c3ccccc3)C3C=CC2C3)OC(=O)c2ccc(C(*)=O)cc2)C2C=CC1C2)COC(=O)C1=C(c2ccccc2)C2C=CC1C2 (repeat unit) ? Fulfilled

Lab log: compare recorded glass transition temperature with 300 °C; is it strictly lower for *Sc1ccc(C(=O)CNCCCCCCCCNCC(=O)c2ccc(*)cc2)cc1 (repeat unit) ? Fulfilled

Lab log: compare recorded glass transition temperature with 300 °C; is it strictly lower for *OC(=O)OCC(OC)C(COC(=O)OC1COC2C(*)COC12)OC (repeat unit) ? Fulfilled

Lab log: compare recorded glass transition temperature with 300 °C; is it strictly lower for *CCCCCCOC(=O)C(CCCCCCCCCCP(=O)(O)O)C(=O)OCCCCCCOc1ccc(-n2on2-c2ccc(O*)cc2)cc1 (repeat unit) ? Fulfilled

Lab log: compare recorded glass transition temperature with 300 °C; is it strictly lower for *C(=O)Nc1ccc(Oc2ccc(NC(=O)c3ccc4c(c3)C(=O)N(c3ccc(-c5sc(-c6ccc(N7C(=O)c8ccc(*)cc8C7=O)cc6)c(-c6ccccc6)c5-c5ccccc5)cc3)C4=O)cc2)cc1 (repeat unit) ? Not fulfilled

* * *

endpoint: glass transition temperature
Don't forget the unit after the number, please.

- compound: "*Oc1cc(Oc2cccc(NC(=O)c3cc(Oc4ccc(C(=O)O)c(C(=O)Nc5cccc(*)c5)c4)ccc3C(=O)O)c2)ccc1C#N (repeat unit)"
  result: "195.80 °C"

get_value(item= *C(=O)Nc1ccc(-c2ccc(NC(=O)c3ccc4c(c3)C(=O)N(c3ccc(S(=O)(=O)c5ccc(N6C(=O)c7ccc(*)cc7C6=O)cc5)cc3)C4=O)cc2)cc1 (repeat unit) , readout=glass transition temperature) returns 370.00 °C

get_value(item= *Oc1ccc(/N=C/c2ccc(Oc3ccc(C(C)(C)c4ccc(Oc5ccc(/C=N/c6ccc(Oc7ccc(-c8ccc(*)cc8)cc7)cc6)cc5)cc4)cc3)cc2)cc1 (repeat unit) , readout=glass transition temperature) returns 120.00 °C

get_value(item= *CC(*)(C)C(=O)O (repeat unit) , readout=glass transition temperature) returns 161.70 °C

* * *

endpoint: glass transition temperature (°C)
Give your result in °C as a bare value.

Some solved entries appear below for comparison.
- molecule: "*/C=C/CCCCCCCCCC(CCCCCCCCC*)COCCOCCOCCOCCOCCCCCC (repeat unit)"
  endpoint: "glass transition temperature"
  value_unit: "°C"
  numeric_value: -76.00
- molecule: "*c1cc(Br)c(-c2c(Br)cc(N3C(=O)c4ccc(-c5ccc6c(c5)C(=O)N(*)C6=O)cc4C3=O)cc2C(=O)OCCCCCCCCCCCCCC)c(C(=O)OCCCCCCCCCCCCCC)c1 (repeat unit)"
  endpoint: "glass transition temperature"
  value_unit: "°C"
  numeric_value: 98.00
- molecule: "*c1c(C)cc(C(c2cc(C)c(N3C(=O)c4ccc(-c5ccc6c(c5)C(=O)N(*)C6=O)cc4C3=O)c(C)c2)c2cccc3ccccc23)cc1C (repeat unit)"
  endpoint: "glass transition temperature"
  value_unit: "°C"
  numeric_value: 326.00

Proceeding to the next molecule to report its glass transition temperature.
get_value(item= *CC(CCCC)COC(=O)NC(=O)c1cccc(C(=O)NC(=O)O*)c1 (repeat unit) , readout=glass transition temperature) returns 64.00

* * *

Each item that follows carries a reported glass transition temperature.
Give your result in °C as a bare value.

Some solved entries appear below for comparison.
- compound: "*OS(=O)(=O)c1cc(S(=O)(=O)Oc2ccc(C3(c4ccc(*)cc4)CCCC3)cc2)ccc1C (repeat unit)"
  value_unit: "°C"
  glass transition temperature: 134.00
- compound: "*/C=C/CCCCCC* (repeat unit)"
  value_unit: "°C"
  glass transition temperature: -78.00

get_value(item= *CCCCCCN1C(=O)C(=O)N(c2ccc(CCc3ccccc3N3C(=O)C(=O)N(*)C3=O)cc2)C1=O (repeat unit) , readout=glass transition temperature) returns 137.00
